# System: Escherichia coli TOP10
# Assay explanation: shrunken log2 fold change of peptide-encoding DNA abundance (4.5 h post-induction vs induction); higher = less antimicrobial activity (less host growth inhibition)
# Assay setup: time post-induction: 4.5 h; library: site-saturation at positions 5, 18, 19, 20
Classes are defined on shrunken log2 fold change with ranges bottom end: < -0.07; midrange: ≥ -0.07 and < 0.3; top end: ≥ 0.3

Observe how each entry below is paired with its result.
RRIRSRPPRLPRPRPRPHMRPRP: midrange
RRIRTRPPRLPRPRPRPWHHPRP: midrange
RRIRKRPPRLPRPRPRPRWWPRP: top end
RRIRSRPPRLPRPRPRPPCWPRP: midrange
RRIRYRPPRLPRPRPRPLDIPRP: bottom end

Task: Class? Entry: RRIRPRPPRLPRPRPRPTEKPRP
Output: midrange

Task: Class? Entry: RRIRQRPPRLPRPRPRPNYQPRP
Output: bottom end

Task: Class? Entry: RRIRKRPPRLPRPRPRPACMPRP
Output: top end

Task: Class? Entry: RRIRWRPPRLPRPRPRPQNAPRP
Output: bottom end

Task: Class? Entry: RRIRTRPPRLPRPRPRPSNGPRP
Output: bottom end

Task: Class? Entry: RRIRKRPPRLPRPRPRPGCKPRP
Output: midrange

Task: Class? Entry: RRIRARPPRLPRPRPRPLHQPRP
Output: midrange

Task: Class? Entry: RRIRWRPPRLPRPRPRPNFAPRP
Output: midrange

Task: Class? Entry: RRIRARPPRLPRPRPRPSAPPRP
Output: top end

----------
# shrunken log2 fold change per entry
# Tested on: Escherichia coli TOP10
# Assay explanation: shrunken log2 fold change of peptide-encoding DNA abundance (4.5 h post-induction vs induction); higher = less antimicrobial activity (less host growth inhibition)
# Assay setup: time post-induction: 4.5 h; library: site-saturation at positions 5, 18, 19, 20

Study these solved cases before continuing.
RRIRKRPPRLPRPRPRPEVDPRP: 3.04
RRIRERPPRLPRPRPRPYDNPRP: 0.033

Task: Query: shrunken log2 fold change; subject: RRIRMRPPRLPRPRPRPLNKPRP
Output: 0.118

Task: Query: shrunken log2 fold change; subject: RRIRMRPPRLPRPRPRPNEYPRP
Output: -0.0432

Task: Query: shrunken log2 fold change; subject: RRIRKRPPRLPRPRPRPQKGPRP
Output: -0.0581

Task: Query: shrunken log2 fold change; subject: RRIRMRPPRLPRPRPRPSMVPRP
Output: 0.0557

Task: Query: shrunken log2 fold change; subject: RRIRIRPPRLPRPRPRPPPEPRP
Output: 0.32

Task: Query: shrunken log2 fold change; subject: RRIRSRPPRLPRPRPRPLVRPRP
Output: 0.0873

----------
# Test system: Escherichia coli TOP10
# Assay explanation: shrunken log2 fold change of peptide-encoding DNA abundance (4.5 h post-induction vs induction); higher = less antimicrobial activity (less host growth inhibition)
# Assay setup: time post-induction: 4.5 h; library: site-saturation at positions 5, 18, 19, 20
# shrunken log2 fold change per entry
Field format: numeric only.

RRIRNRPPRLPRPRPRPFDCPRP: 0.0101
RRIRYRPPRLPRPRPRPCFSPRP: -0.594
RRIRERPPRLPRPRPRPGKQPRP: -0.0388
RRIRCRPPRLPRPRPRPNTHPRP: -0.499

Task: Query: shrunken log2 fold change; subject: RRIRERPPRLPRPRPRPAWCPRP
Output: 0.238

Task: Query: shrunken log2 fold change; subject: RRIRERPPRLPRPRPRPSQGPRP
Output: -0.153

Task: Query: shrunken log2 fold change; subject: RRIRSRPPRLPRPRPRPCNSPRP
Output: -0.0626

Task: Query: shrunken log2 fold change; subject: RRIRMRPPRLPRPRPRPHNWPRP
Output: 0.249

Task: Query: shrunken log2 fold change; subject: RRIRKRPPRLPRPRPRPDYVPRP
Output: -0.0105

Task: Query: shrunken log2 fold change; subject: RRIRPRPPRLPRPRPRPWLIPRP
Output: -0.31

Task: Query: shrunken log2 fold change; subject: RRIRSRPPRLPRPRPRPCGLPRP
Output: 0.00512

Task: Query: shrunken log2 fold change; subject: RRIRARPPRLPRPRPRPYVCPRP
Output: -0.255

Task: Query: shrunken log2 fold change; subject: RRIRQRPPRLPRPRPRPGTSPRP
Output: -0.523

Task: Query: shrunken log2 fold change; subject: RRIRGRPPRLPRPRPRPQKIPRP
Output: 0.274

----------
# shrunken log2 fold change per entry
# Tested on: Escherichia coli TOP10
# Assay explanation: shrunken log2 fold change of peptide-encoding DNA abundance (4.5 h post-induction vs induction); higher = less antimicrobial activity (less host growth inhibition)
# Assay setup: time post-induction: 4.5 h; library: site-saturation at positions 5, 18, 19, 20
Field format: numeric only.

Study these solved cases before continuing.
RRIRFRPPRLPRPRPRPWNFPRP: -0.0389
RRIRIRPPRLPRPRPRPFTYPRP: -0.00992

Task: Query: shrunken log2 fold change; subject: RRIRVRPPRLPRPRPRPMHLPRP
Output: -0.167

----------
# Tested on: Escherichia coli TOP10
# Assay explanation: shrunken log2 fold change of peptide-encoding DNA abundance (4.5 h post-induction vs induction); higher = less antimicrobial activity (less host growth inhibition)
# Assay setup: time post-induction: 4.5 h; library: site-saturation at positions 5, 18, 19, 20
Assign Satisfied to entries whose shrunken log2 fold change meets or exceeds -0.003; assign Not satisfied to the rest.

Observe how each entry below is paired with its result.
RRIRVRPPRLPRPRPRPIMKPRP: Not satisfied
RRIRERPPRLPRPRPRPECYPRP: Not satisfied
RRIRRRPPRLPRPRPRPSETPRP: Satisfied
RRIRKRPPRLPRPRPRPLIPPRP: Satisfied
RRIRHRPPRLPRPRPRPQRGPRP: Not satisfied

Task: Does the sequence RRIRIRPPRLPRPRPRPTNQPRP have recorded shrunken log2 fold change that is -0.003 or more?
Output: Not satisfied

Task: Does the sequence RRIRNRPPRLPRPRPRPMALPRP have recorded shrunken log2 fold change that is -0.003 or more?
Output: Not satisfied

Task: Does the sequence RRIRPRPPRLPRPRPRPEAYPRP have recorded shrunken log2 fold change that is -0.003 or more?
Output: Satisfied

Task: Does the sequence RRIRWRPPRLPRPRPRPGIRPRP have recorded shrunken log2 fold change that is -0.003 or more?
Output: Satisfied

Task: Does the sequence RRIRTRPPRLPRPRPRPHHGPRP have recorded shrunken log2 fold change that is -0.003 or more?
Output: Not satisfied

Task: Does the sequence RRIRERPPRLPRPRPRPPQQPRP have recorded shrunken log2 fold change that is -0.003 or more?
Output: Satisfied

Task: Does the sequence RRIRCRPPRLPRPRPRPEFHPRP have recorded shrunken log2 fold change that is -0.003 or more?
Output: Not satisfied

Task: Does the sequence RRIRQRPPRLPRPRPRPGTPPRP have recorded shrunken log2 fold change that is -0.003 or more?
Output: Satisfied

Task: Does the sequence RRIRLRPPRLPRPRPRPTIMPRP have recorded shrunken log2 fold change that is -0.003 or more?
Output: Not satisfied

----------
# shrunken log2 fold change per entry
# Tested on: Escherichia coli TOP10
# Assay explanation: shrunken log2 fold change of peptide-encoding DNA abundance (4.5 h post-induction vs induction); higher = less antimicrobial activity (less host growth inhibition)
# Assay setup: time post-induction: 4.5 h; library: site-saturation at positions 5, 18, 19, 20
Field format: numeric only.

Study these solved cases before continuing.
RRIRFRPPRLPRPRPRPYPEPRP: -0.488
RRIRFRPPRLPRPRPRPKWNPRP: -0.217
RRIRMRPPRLPRPRPRPNECPRP: 0.175
RRIRQRPPRLPRPRPRPKMYPRP: -0.544
RRIRRRPPRLPRPRPRPIYEPRP: 0.0785

Note: attention shifts to another entry.
Task: Quick check: shrunken log2 fold change on Escherichia coli TOP10, item RRIRGRPPRLPRPRPRPHFQPRP ?
Output: -0.099

----------
# Test system: Escherichia coli TOP10;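 further: peptides expressed intracellularly from a pBAD plasmid library in pooled LB shake-flask culture, induced with 0.3% L-arabinose, DNA abundance read by NGS, three biological replicates, DESeq2 with apeglm shrinkage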
# Assay explanation: shrunken log2 fold change of peptide-encoding DNA abundance (4.5 h post-induction vs induction); higher = less antimicrobial activity (less host growth inhibition)
# Assay setup: time post-induction: 4.5 h; library: site-saturation at positions 5, 18, 19, 20
Assign TRUE to entries whose shrunken log2 fold change meets or exceeds -0.01; assign FALSE to the rest.

RRIRFRPPRLPRPRPRPLMHPRP: FALSE
RRIRRRPPRLPRPRPRPNHVPRP: FALSE
RRIRWRPPRLPRPRPRPTDFPRP: FALSE
RRIRSRPPRLPRPRPRPAYEPRP: TRUE
RRIRKRPPRLPRPRPRPVEWPRP: TRUE

Task: Does the sequence RRIRHRPPRLPRPRPRPEDRPRP have recorded shrunken log2 fold change that is -0.01 or more?
Output: FALSE

Task: Does the sequence RRIRQRPPRLPRPRPRPCKEPRP have recorded shrunken log2 fold change that is -0.01 or more?
Output: TRUE

Task: Does the sequence RRIRLRPPRLPRPRPRPDLRPRP have recorded shrunken log2 fold change that is -0.01 or more?
Output: FALSE

Task: Does the sequence RRIRIRPPRLPRPRPRPHCWPRP have recorded shrunken log2 fold change that is -0.01 or more?
Output: FALSE

Task: Does the sequence RRIRYRPPRLPRPRPRPFYQPRP have recorded shrunken log2 fold change that is -0.01 or more?
Output: FALSE

Task: Does the sequence RRIRQRPPRLPRPRPRPYTNPRP have recorded shrunken log2 fold change that is -0.01 or more?
Output: FALSE

Task: Does the sequence RRIRRRPPRLPRPRPRPAHVPRP have recorded shrunken log2 fold change that is -0.01 or more?
Output: TRUE

Task: Does the sequence RRIRTRPPRLPRPRPRPSDIPRP have recorded shrunken log2 fold change that is -0.01 or more?
Output: FALSE
